8OG:A repair function score values by entry
B1: library; numbered along this chain (parent)
chain: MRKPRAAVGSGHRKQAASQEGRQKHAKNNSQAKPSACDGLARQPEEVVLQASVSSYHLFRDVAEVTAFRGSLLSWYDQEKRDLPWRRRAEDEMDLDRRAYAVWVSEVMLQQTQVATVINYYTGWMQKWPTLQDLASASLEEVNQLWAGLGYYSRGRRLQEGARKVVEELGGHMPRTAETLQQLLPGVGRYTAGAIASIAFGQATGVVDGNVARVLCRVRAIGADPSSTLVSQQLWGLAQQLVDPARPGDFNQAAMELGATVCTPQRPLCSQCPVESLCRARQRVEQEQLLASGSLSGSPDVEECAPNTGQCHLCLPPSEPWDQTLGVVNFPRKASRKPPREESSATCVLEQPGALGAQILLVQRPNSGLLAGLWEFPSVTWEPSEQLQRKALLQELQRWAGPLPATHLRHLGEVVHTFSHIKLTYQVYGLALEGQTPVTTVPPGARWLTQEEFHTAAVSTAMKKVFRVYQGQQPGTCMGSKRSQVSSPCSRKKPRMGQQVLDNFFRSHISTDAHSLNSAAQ

# Variants of: B1
# protocol summary: 8OG:A repair function score (normalized; synonymous = 0, nonsense = -1) (normalized log-likelihood score); higher = more repair activity (WT-like);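 further: cells sorted at 72 h after reporter transfection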
# protocol conditions: with 8OG:A DNA repair reporter (GFP) in HEK-293 MUTYH KO cells
Give a plain numeric answer without units written out.

Before answering, review these 10 worked examples.
L139D	-0.831
V362I	-0.125
Q358L	0.00809
A291G	-0.0909
R332F	-0.0556
E413H	0.00964
Q394G	0.266
G372L	-0.351
E341G	-0.208
V328H	-0.251

# evaluate next
For the variant `Q323L` , report 8OG:A repair function score.
-0.0798
